These measurements were taken from patent US20230279115A1.

Molecular target: T1, human PD-L1 recombinant protein (human, UniProt Q9NZQ7 19-238)
T1 construct: also called recombinant PD-L1 protein; recombinant PD-L1
T1 sequence (Q9NZQ7 19-238 limits assumed): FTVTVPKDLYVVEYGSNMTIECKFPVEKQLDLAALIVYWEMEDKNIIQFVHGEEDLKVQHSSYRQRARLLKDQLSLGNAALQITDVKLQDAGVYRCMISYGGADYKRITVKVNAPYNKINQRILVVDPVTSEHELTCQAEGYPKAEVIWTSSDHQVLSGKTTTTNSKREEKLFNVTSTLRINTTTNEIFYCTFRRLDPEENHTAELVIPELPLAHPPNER
Test: BLI, human PD-L1 recombinant protein
The following binders are shown together with reported koff values.
Express it in s⁻¹; write the number only.

binder="hzF2-m1 (VHH, The parent hzF2 is a VHH-human IgG1 Fc fusion; also called humanized single variable domain antibody hzF2-m1) VHH: EVQLVESGGGLVQPGGSLRLSCAASRDSDDGASSMGWFRQAPGKGLEGVAIIFNAGERTDYGDSVKGRFTISRDNAKNTLYLQMNSLRAEDTAVYYCATVWSGSWVARSWGQGTLVTVSS" measurement_name=koff value_observed=0.0019
binder="hzF2-m2 (VHH, The parent hzF2 is a VHH-human IgG1 Fc fusion; also called humanized single variable domain antibody hzF2-m2) VHH: EVQLVESGGGLVQPGGSLRLSCAASGDSDDGASCMGWFRQAPGKGLEGVAIIFNAGERTDYGDSVKGRFTISRDNAKNTLYLQMNSLRAEDTAVYYCATVWCGSWVARSWGQGTLVTVSS" measurement_name=koff value_observed=0.000709
binder="hzF2-m4 (VHH, The parent hzF2 is a VHH-human IgG1 Fc fusion; also called humanized single variable domain antibody hzF2-m4) VHH: EVQLVESGGGLVQPGGSLRLSCAASRDSNDGASCMGWFRQAPGKGLEGVAIIFNAGERTDYGDSVKGRFTISRDNAKNTLYLQMNSLRAEDTAVYYCATVWCGSWVARSWGQGTLVTVSS" measurement_name=koff value_observed=0.0065
binder="hzF2-m3 (VHH, The parent hzF2 is a VHH-human IgG1 Fc fusion; also called humanized single variable domain antibody hzF2-m3) VHH: EVQLVESGGGLVQPGGSLRLSCAASRDSSSGASCMGWFRQAPGKGLEGVAIIFNAGERTDYGDSVKGRFTISRDNAKNTLYLQMNSLRAEDTAVYYCATVWCGSWVARSWGQGTLVTVSS" measurement_name=koff value_observed=0.00487
binder="hzF2-m8 (VHH, also called humanized single variable domain antibody hzF2-m8) VHH: EVQLVESGGGLVQPGGSLRLSCAASRDSDDGASCMGWFRQAPGKEREGVAIIFNVGERTDYGDSVKGRFTISRDNAKNTLYLQMNSLRAEDTAVYYCATVWCGSWVARSWGQGTLVTVSS" measurement_name=koff value_observed=0.000419

Form: binder = hzF2-m7 (VHH, The parent hzF2 is a VHH-human IgG1 Fc fusion; also called humanized single variable domain antibody hzF2-m7) VHH: EVQLVESGGGLVQPGGSLRLSCAASRDSDDSASCMGWFRQAPGKGLEGVAIIFNAGERTDYGDSVKGRFTISRDNAKNTLYLQMNSLRAEDTAVYYCATVWCGSWVARSWGQGTLVTVSS ; koff = 0.00157

Form: binder = hzF2-m9 (VHH, also called humanized single variable domain antibody hzF2-m9) VHH: EVQLVESGGGLVQPGGSLRLSCAASRDSDEGASCMGWFRQAPGKEREGVAIIFNAGERTDYGDSVKGRFTISRDNAKNTLYLQMNSLRAEDTAVYYCATVWCGSWVARSWGQGTLVTVSS ; koff = 0.000434
